Tested on: K-562 leukemia
Experiment notes: NCI-60 one-dose screen, 48 h (100 = growth as untreated, 0 = no growth, -100 = all killed)
Assay context: 10 µM unless noted
The panel holds about 83,000 compounds, 20% with a hit somewhere; the sample as a whole holds those more often.
Record form. Attribute: growth. Fill in for each entry.
Give bare numbers, in %.

CC(N)Cc1ccc(O)cc1 (configuration not stated) : 94.8
CCN(CC)CCOc1c(C(C)C)cccc1C(C)C : 111

Look up growth for the entries below, preserving their order.
1. O=[As]c1ccc(C(=O)c2ccc(Oc3ccccc3)cc2)cc1 (configuration not stated)
2. [Br][Pb]([c]1ccccc1)([c]1ccccc1)[c]1ccccc1
3. c1ccc(CCN2CCCCC2Cc2ccccc2)cc1 (configuration not stated)
4. CN(Cc1cccnc1)N=O
5. O=c1[nH]c2cc(Cl)ccc2n1C1CCN(CCCC(c2ccc(F)cc2)c2ccc(F)cc2)CC1
6. FC(F)=C(F)c1ccccc1
7. N#CC1c2ccccc2C=CN1C(=O)c1ccc(N(CCCl)CCCl)cc1 (configuration not stated)
8. COc1cc(C2(C#N)CCN(C)CC2)cc(OC)c1OC

Result:
[-17.8, -46.7, 101, 104, -59.9, 89.2, 65.8, 97.5]

Hi, could you look up growth for each item in my list?
1. CC12CCC3C(CC=C4CC(O)CCC43C)C1C/C(=C\N1CCOCC1)C2=O (configuration not stated)
2. CC1(C)CC(=O)CC(C)(C)N1N=O

Result:
1: 108; 2: 111
